Sourced from patent US20150368338A1

- Measured target: T1, IFN-αJ1 (human, UniProt P01567 24-189)
- T1 construct: Recombinant, HEK293; also called IFN-α7
- Procedure text: ProteOn SPR, cell supernatant;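 note: each binding measurement used just a single antigen concentration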
Overview of reported Kd across a group of binders:
Recorded endpoint: Kd (nM)

1. IFWM3418 (antibody, IgG1, V domains shown, mAb; IgG1/kappa said of the parent and of selected mAbs; also called IFWB3153) VH: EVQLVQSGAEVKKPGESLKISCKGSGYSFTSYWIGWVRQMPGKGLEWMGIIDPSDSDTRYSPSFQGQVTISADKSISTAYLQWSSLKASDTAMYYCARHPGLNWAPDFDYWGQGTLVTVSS VL: DIQMTQSPSSLSASVGDRVTITCRASQSIAGFLNWYQQKPGKAPKLLIYYASSLQSGVPSRFSGSGSGTDFTLTISSLQPEDFATYYCQQSYSIPITFGQGTKVEIK: 0.656
2. IFWM3390 (antibody, IgG1, V domains shown, mAb; IgG1/kappa said of the parent and of selected mAbs; also called IFWB3125) VH: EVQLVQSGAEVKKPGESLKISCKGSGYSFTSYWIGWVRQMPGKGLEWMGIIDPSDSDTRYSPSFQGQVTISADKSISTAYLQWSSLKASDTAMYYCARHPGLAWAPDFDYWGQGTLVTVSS VL: DIQMTQSPSSLSASVGDRVTITCRASQSIDGALNWYQQKPGKAPKLLIYFASSLQSGVPSRFSGSGSGTDFTLTISSLQPEDFATYYCQQSFDFPLTFGQGTKVEIK: 0.03
